Form field: Biodistribution, B16F10 tumour (one value per entry).
System: B16F10 mouse melanoma
Test: Biodistribution of 177Lu-labeled αMSH analogues in mice bearing B16F10 mouse melanoma
Assay type: in vivo, C57BL/6J mice
Settings: 4 h p.i., C57BL/6J mice, B16F10 melanoma
Experimental: The B16-F10 mouse melanoma cells were cultured and inoculated in mice as described in Example 1. For biodistribution studies, approximately 1-2 MBq of ^177Lu-labeled αMSH analogues via tail vein under anesthesia. At 1, 4, 24, and 120 h p.i., the mice were euthanized by CO2 inhalation. Organs/tissues were harvested and the radioactivity was measured as described in Example 1.
Please respond with the number in % ID/g and leave the unit unwritten.

Need Biodistribution, B16F10 tumour, item CCCC[C@H](NC(=O)CN1CCC(NC(=O)CN2CCN(CC(=O)O)CCN(CC(=O)O)CCN(CC(=O)O)CC2)CC1)C(=O)N[C@H]1CC(=O)NCCCC[C@@H](C(N)=O)N(C)C(=O)[C@H](Cc2c[nH]c3ccccc23)N(C)C(=O)[C@H](CCCNC(=N)N)N(C)C(=O)[C@@H](Cc2ccccc2)NC(=O)[C@H](Cc2c[nH]cn2)N(C)C1=O [^177Lu-labeled CCZ01099, metal not drawn]
4.42

Also CCCC[C@H](NC(=O)CN1CCC(NC(=O)[C@H](CCCCNC(=O)CN2CCN(CC(=O)O)CCN(CC(=O)O)CCN(CC(=O)O)CC2)NC(=O)[C@H](CCC(=O)O)NC(=O)CCCc2ccc(I)cc2)CC1)C(=O)N[C@H]1CC(=O)NCCCC[C@@H](C(N)=O)N(C)C(=O)[C@H](Cc2c[nH]c3ccccc23)N(C)C(=O)[C@H](CCCNC(=N)N)N(C)C(=O)[C@@H](Cc2ccccc2)NC(=O)[C@H](Cc2c[nH]cn2)N(C)C1=O [^177Lu-labeled CCZ01088, metal not drawn] , if possible.
10.9

Also CCCC[C@H](NC(=O)CN1CCC(NC(=O)CN2CCN(CC(=O)O)CCN(CC(=O)O)CCN(CC(=O)O)CC2)CC1)C(=O)N[C@H]1CC(=O)NCCCC[C@@H](C(N)=O)N(C)C(=O)[C@H](Cc2c[nH]c3ccccc23)NC(=O)[C@H](CCCNC(=N)N)N(C)C(=O)[C@@H](Cc2ccccc2)NC(=O)[C@H](Cc2c[nH]cn2)NC1=O [^177Lu-labeled CCZ01106, metal not drawn] , if possible.
7.81
